target under test: human GPR40 (Homo sapiens)
Sequence (O14842 whole entry): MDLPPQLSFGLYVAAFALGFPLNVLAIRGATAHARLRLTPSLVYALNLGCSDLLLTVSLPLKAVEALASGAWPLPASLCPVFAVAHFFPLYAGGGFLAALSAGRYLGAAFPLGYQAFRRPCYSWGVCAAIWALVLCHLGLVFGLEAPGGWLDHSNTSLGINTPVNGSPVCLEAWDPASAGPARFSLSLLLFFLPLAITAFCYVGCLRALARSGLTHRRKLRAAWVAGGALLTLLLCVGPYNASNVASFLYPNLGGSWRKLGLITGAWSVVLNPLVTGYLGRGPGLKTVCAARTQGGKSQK
method notes: Cell-based aequorin assay using human GPR40
assay conditions: activation of human GPR40; CHO cells transfected with GPR40 and aequorin expression vectors; aequorin luminescence, area-under-curve 2-20 seconds; read-out: Relative EC50
pEC50: −log10 of the molar value.
quantity measured: pEC50

[
  {
    "molecule": "CC#CC(CC(=O)O)c1ccc(OCc2cccc(-c3ccncc3)c2)cc1 (centres unmarked)",
    "target under test": "human GPR40 (Homo sapiens)",
    "measured value": "6.00 to 7.00"
  },
  {
    "molecule": "CC#CC(CC(=O)O)c1ccc(OCc2csc(-c3ccc(Cl)cc3)n2)cc1 (centres unmarked)",
    "target under test": "human GPR40 (Homo sapiens)",
    "measured value": "7.00 to 8.00"
  },
  {
    "molecule": "CC#C[C@@H](CC(=O)O)c1ccc(OCc2ccccc2C)cc1 (single isomer, unassigned)",
    "target under test": "human GPR40 (Homo sapiens)",
    "measured value": "7.00 to 8.00"
  },
  {
    "molecule": "O=C(O)CN(c1ccccc1)c1ccc(NC(=O)Cc2ccccc2)cc1",
    "target under test": "human GPR40 (Homo sapiens)",
    "measured value": "7.00 to 8.00"
  },
  {
    "molecule": "CC#CC(CC(=O)O)c1ccc(SCc2ccccc2C)cc1 (centres unmarked)",
    "target under test": "human GPR40 (Homo sapiens)",
    "measured value": "6.00 to 7.00"
  },
  {
    "molecule": "O=C(O)C[C@H](NC(=O)Cc1ccccc1)c1ccc(OCc2cccc(Oc3ccc(F)cc3)c2)cc1",
    "target under test": "human GPR40 (Homo sapiens)",
    "measured value": "< 5.00"
  },
  {
    "molecule": "CC#CC(CC(=O)O)c1ccc(OCc2sc(-c3ccc(C(F)(F)F)cc3)nc2C)cc1 (centres unmarked)",
    "target under test": "human GPR40 (Homo sapiens)",
    "measured value": "7.00 to 8.00"
  },
  {
    "molecule": "CC#CC(CC(=O)O)c1ccc(OCc2ccc(-c3ccncc3)cc2)cc1 (centres unmarked)",
    "target under test": "human GPR40 (Homo sapiens)",
    "measured value": "6.00 to 7.00"
  },
  {
    "molecule": "CC#CC(CC(=O)O)c1ccc(OCc2ccc(OC)cc2)cc1 (racemic)",
    "target under test": "human GPR40 (Homo sapiens)",
    "measured value": "6.00 to 7.00"
  },
  {
    "molecule": "CC#CC(CC(=O)O)c1ccc(OCc2cccc(-c3ccc(C#N)cc3)c2)cc1 (centres unmarked)",
    "target under test": "human GPR40 (Homo sapiens)",
    "measured value": "7.00 to 8.00"
  },
  {
    "molecule": "CC#C[C@@H](CC(=O)O)c1ccc(OCc2ccc(OC)cc2)cc1",
    "target under test": "human GPR40 (Homo sapiens)",
    "measured value": "7.00 to 8.00"
  },
  {
    "molecule": "CC#CC(CC(=O)O)c1ccc(OCc2ccc(-c3ccc(C#N)cc3)cc2)cc1 (centres unmarked)",
    "target under test": "human GPR40 (Homo sapiens)",
    "measured value": "7.00 to 8.00"
  },
  {
    "molecule": "CC#CC(CC(=O)O)c1ccc(OCc2ccc(CCc3ccccc3)cc2)cc1 (centres unmarked)",
    "target under test": "human GPR40 (Homo sapiens)",
    "measured value": "6.00 to 7.00"
  },
  {
    "molecule": "CC#CC(CC(=O)O)c1ccc(OCc2csc(-c3ccccc3)n2)cc1 (centres unmarked)",
    "target under test": "human GPR40 (Homo sapiens)",
    "measured value": "7.00 to 8.00"
  },
  {
    "molecule": "O=C(O)CN(c1ccccc1)c1ccc(NC(=O)CCc2ccccc2)cc1",
    "target under test": "human GPR40 (Homo sapiens)",
    "measured value": "> 8.00"
  },
  {
    "molecule": "O=C(O)CC(c1ccc(OCc2cccc(-c3ccc(C(F)(F)F)cc3)c2)cc1)n1cccn1 (centres unmarked)",
    "target under test": "human GPR40 (Homo sapiens)",
    "measured value": "7.00 to 8.00"
  },
  {
    "molecule": "NC(=O)C(CC(=O)O)c1ccc(OCc2cccc(-c3ccc(C(F)(F)F)cc3)c2)cc1 (centres unmarked)",
    "target under test": "human GPR40 (Homo sapiens)",
    "measured value": "5.00 to 6.00"
  },
  {
    "molecule": "CC#CC(CC(=O)O)c1ccc(OCc2ccc(-c3ccccn3)cc2)cc1 (centres unmarked)",
    "target under test": "human GPR40 (Homo sapiens)",
    "measured value": "7.00 to 8.00"
  },
  {
    "molecule": "O=C(O)CC(c1ccc(Cl)cc1)c1ccc(OCc2cccc(Oc3ccccc3)c2)cc1 (centres unmarked)",
    "target under test": "human GPR40 (Homo sapiens)",
    "measured value": "6.00 to 7.00"
  },
  {
    "molecule": "Cc1ccccc1COc1ccc(C(C#CC2CC2)CC(=O)O)cc1 (centres unmarked)",
    "target under test": "human GPR40 (Homo sapiens)",
    "measured value": "6.00 to 7.00"
  },
  {
    "molecule": "CC(C)CN(CC(C)C)[C@@H](CC(=O)O)c1ccc(OCc2cccc(Oc3ccc(F)cc3)c2)cc1",
    "target under test": "human GPR40 (Homo sapiens)",
    "measured value": "< 5.00"
  },
  {
    "molecule": "CCC(=O)N[C@@H](CC(=O)O)c1ccc(OCc2cccc(Oc3ccc(F)cc3)c2)cc1",
    "target under test": "human GPR40 (Homo sapiens)",
    "measured value": "< 5.00"
  },
  {
    "molecule": "Cc1ccccc1COc1ccc(C(C#CC(C)C)CC(=O)O)cc1 (centres unmarked)",
    "target under test": "human GPR40 (Homo sapiens)",
    "measured value": "6.00 to 7.00"
  },
  {
    "molecule": "CC#CC(CC(=O)O)c1ccc(OCc2cccc(-c3cccc(C(F)(F)F)c3)c2)cc1 (centres unmarked)",
    "target under test": "human GPR40 (Homo sapiens)",
    "measured value": "7.00 to 8.00"
  },
  {
    "molecule": "CCCCOc1ccc(C)cc1-c1ccc(COc2ccc(C(CC(=O)O)c3ccnn3C)cc2)cc1 (centres unmarked)",
    "target under test": "human GPR40 (Homo sapiens)",
    "measured value": "6.00 to 7.00"
  },
  {
    "molecule": "O=C(O)CC(c1ccc(OCc2cccc(Oc3ccccc3)c2)cc1)c1ccc(C(F)(F)F)cc1 (centres unmarked)",
    "target under test": "human GPR40 (Homo sapiens)",
    "measured value": "5.00 to 6.00"
  }
]
